Each item that follows carries a reported inhibition in vivo at 16 mg/kg.
# Test system: Canis familiaris
# assay-procedure: Inhibition of gastrin tetrapeptide-induced gastric secretion in beagle dog at 16 mg/kg administered directly into stomach via gastric cannula measured after 2 hrs of stimulation
# Format: functional
# assay-context: Canis lupus familiaris
State the answer as a number, implicitly in %.

The following molecules have reported results that may help.
[Q] Report inhibition in vivo at 16 mg/kg under test system Canis familiaris for Cl.N=C(CS)NC12CC3CC(CC(C3)C1)C2 .
[A] 86

[Q] Report inhibition in vivo at 16 mg/kg under test system Canis familiaris for Cl.N=C(CS)NC(c1ccccc1)c1ccc(Cl)cc1 (centres undefined) .
[A] 87

[Q] Report inhibition in vivo at 16 mg/kg under test system Canis familiaris for CC(=N)NC1CCCCC1 .
[A] 0

Read the next record carefully.
[Q] Report inhibition in vivo at 16 mg/kg under test system Canis familiaris for Cl.N=C(CS)NCC12CC3CC(CC(C3)C1)C2 .
[A] 74
